# ASSAY METHOD TEXT: Aqueous pH 7.4 solubility
# Assay type: physicochemical
# CONDITION INFO: aqueous buffer, thermodynamic from solid; 0.1 M phosphate buffer pH 7.4, 25°C, 20-24 hours
OBSERVED PROPERTY: solubility (µM)

{"GIVEN SMILES": "Nc1nc2c(cnn2CCN2CCN(c3ccc(OCCF)cc3)CC2)c2nc(-c3ccco3)nn12", "solubility (µM)": 74}

(P) Nc1nc2c(cnn2CCN2CCN(c3ccc(OCCOCCOCCF)cc3)CC2)c2nc(-c3ccco3)nn12
(Q) Nc1nc2c(cnn2CCN2CCN(c3ccc(OCCOCCF)cc3)CC2)c2nc(-c3ccco3)nn12
### Prompt Hey, between P and Q which has a smaller measured solubility? # respond with the chosen item's label
### Response Q
